Value source: patent US20240116985A1

target or system: full-length beta-Catenin (Uniprot ID P35222) (Homo sapiens, UniProt P35222)
Construct: 10 nM full-length beta-Catenin (Uniprot ID P35222)
Sequence (P35222 whole entry): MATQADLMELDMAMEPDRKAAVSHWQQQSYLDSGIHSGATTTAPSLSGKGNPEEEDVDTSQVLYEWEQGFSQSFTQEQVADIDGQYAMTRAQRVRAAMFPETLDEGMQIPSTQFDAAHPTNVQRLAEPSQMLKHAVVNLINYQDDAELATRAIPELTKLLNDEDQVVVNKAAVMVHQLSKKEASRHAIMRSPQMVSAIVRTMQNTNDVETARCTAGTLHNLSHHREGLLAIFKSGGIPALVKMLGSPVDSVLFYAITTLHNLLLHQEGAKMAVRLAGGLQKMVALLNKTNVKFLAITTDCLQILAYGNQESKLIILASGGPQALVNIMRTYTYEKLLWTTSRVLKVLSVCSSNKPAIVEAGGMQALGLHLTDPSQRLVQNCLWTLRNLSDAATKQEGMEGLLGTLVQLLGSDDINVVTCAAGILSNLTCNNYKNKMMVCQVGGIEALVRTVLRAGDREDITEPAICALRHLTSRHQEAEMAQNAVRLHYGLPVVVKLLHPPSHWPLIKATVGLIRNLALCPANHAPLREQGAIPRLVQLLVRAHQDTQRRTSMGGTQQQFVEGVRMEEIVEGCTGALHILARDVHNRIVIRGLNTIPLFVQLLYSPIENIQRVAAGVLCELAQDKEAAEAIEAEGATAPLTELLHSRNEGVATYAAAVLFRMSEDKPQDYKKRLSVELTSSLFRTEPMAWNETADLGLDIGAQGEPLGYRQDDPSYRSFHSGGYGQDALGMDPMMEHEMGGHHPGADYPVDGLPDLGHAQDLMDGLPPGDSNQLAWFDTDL
run description: Fluorescence polarization IC50 (beta-catenin / 5FAM-TCF4 10-53 competition)
Format: binding
cond: fluorescence polarization; read-out: beta-Catenin FP IC50
Assign IC50 to each entry below.
Please state the figure in µM; there is no need to write the unit.

Notebook: CC(=O)N1CCC[C@]12CC=CCCCC1(CCCC=CCCCOC(=O)N3CC[C@@](C(=O)N[C@@H](Cc4ccccc4)C(=O)N[C@@H](Cc4csc5ccccc45)C(=O)N[C@@H](CCC(N)=O)C(N)=O)(C3)NC(=O)[C@H](CC(C)C)NC(=O)[C@H](Cc3ccccc3)NC(=O)[C@H](C)NC(=O)[C@H](CCO)NC(=O)[C@H]([C@@H](C)O)NC(=O)[C@H](CC(=O)O)NC1=O)NC(=O)[C@H](CC1CCCCC1)NC(=O)[C@H](CC(N)=O)NC2=O (stereo partly drawn) , IC50 read as 3.25

Notebook: CC(=O)N1CCC[C@]12CC=CCCCC1(CCCC=CCCCOC(=O)N3CC[C@@](C(=O)N[C@@H](Cc4ccccc4)C(=O)N[C@@H](Cc4csc5ccccc45)C(=O)N[C@@H](CO)C(N)=O)(C3)NC(=O)[C@H]([C@@H](C)O)NC(=O)[C@H](Cc3ccccc3)NC(=O)[C@H](C)NC(=O)[C@H](C)NC(=O)[C@H]([C@@H](C)O)NC(=O)[C@H](CC(=O)O)NC1=O)NC(=O)[C@H](CC(C)(C)C)NC(=O)[C@H](CC(=O)O)NC2=O (stereo partly drawn) , IC50 read as 0.043

Notebook: CC(=O)N1CCC[C@]12CC=CCCC1(CCC=CCCCOC(=O)N3CC[C@@](C(=O)N[C@@H](Cc4ccsc4)C(=O)N[C@@H](Cc4csc5ccccc45)C(=O)N[C@@H](CCC(N)=O)C(N)=O)(C3)NC(=O)[C@H](CC(C)C)NC(=O)[C@H](Cc3ccccc3)NC(=O)[C@H](C)NC(=O)[C@H](C)NC(=O)[C@H](CC(=O)O)NC(=O)[C@H](CC(=O)O)NC1=O)NC(=O)[C@H](CC(C)(C)C)NC(=O)[C@H](CC(=O)O)NC2=O (stereo partly drawn) [I-1972] , IC50 read as 0.689

====

target or system: full-length beta-Catenin (Uniprot ID P35222) (Homo sapiens, UniProt P35222)
Construct: 10 nM full-length beta-Catenin (Uniprot ID P35222)
run description: Fluorescence polarization IC50 (beta-catenin / 5FAM-TCF4 10-53 competition)
Assay type: binding
cond: fluorescence polarization; read-out: beta-Catenin FP IC50
measurement type: IC50 (nM)
Please state the figure in nM; there is no need to write the unit.

Notebook: CC(=O)N1CCC[C@]12CC=CCCCC1(CCCC=CCCCOC(=O)N3CC[C@@](C(=O)N[C@@H](Cc4ccsc4)C(=O)N[C@@H](Cc4csc5ccccc45)C(=O)N[C@H](CO)[C@@H](C)O)(C3)NC(=O)[C@H](CC(C)C)NC(=O)[C@H](Cc3ccccc3)NC(=O)[C@H](C)NC(=O)[C@H](C)NC(=O)[C@H](CC(=O)O)NC(=O)[C@H](CC(=O)O)NC1=O)NC(=O)[C@H](CC(C)(C)C)NC(=O)[C@H](CC(N)=O)NC2=O (stereo partly drawn) , IC50 read as 31

Notebook: CC(=O)N1CCC[C@]12CC=CCCCC1(CCCC=CCCCOC(=O)N3CC[C@@](C(=O)N[C@@H](Cc4ccccc4C(F)(F)F)C(=O)N[C@@H](Cc4c(C(F)(F)F)[nH]c5ccccc45)C(=O)N[C@@H](CCC(N)=O)C(N)=O)(C3)NC(=O)[C@H](CC(C)C)NC(=O)[C@H](Cc3ccccc3)NC(=O)[C@H](C)NC(=O)[C@H](C)NC(=O)[C@H](Cc3cccc(C(=O)O)c3)NC(=O)[C@H](CC(=O)O)NC1=O)NC(=O)[C@H](CC(C)(C)C)NC(=O)[C@H](CC(=O)O)NC2=O (stereo partly drawn) , IC50 read as 6290

Notebook: CC(=O)N1CCC[C@]12CC=CCCCC1(CCCC=CCCCOC(=O)N3CC[C@@](C(=O)N[C@@H](Cc4ccsc4)C(=O)N[C@@H](Cc4csc5ccccc45)C(=O)N[C@@H](CCC(N)=O)C(N)=O)(C3)NC(=O)[C@H](CC(N)=O)NC(=O)[C@H](Cc3ccccc3)NC(=O)[C@H](C)NC(=O)[C@H](C)NC(=O)[C@H](CNCC(=O)O)NC(=O)[C@H](CC(=O)O)NC1=O)NC(=O)[C@H](CC(C)(C)C)NC(=O)[C@H](CC(=O)O)NC2=O (stereo partly drawn) [I-1732] , IC50 read as 11
